experiment: qHTS assay to identify small molecule antagonists of the sonic hedgehog signaling (Shh) pathway - cell viability counter screen (AID 1259367); settings: NIH/3T3 Gli1-Luc viability, CellTiter-Fluor, 24 h; series mostly up to 92.4 µM; also: nearly all actives have a fitted effect of over 55% in size; also: potency is read from the fitted curve at half-maximal effect
Results filed as inconclusive are left out. Calls of active or inactive are those of the source. Calls follow the shape of the dose curve; as a rule, active = well fitted cell-killing curve with a large enough effect in the repeat runs; inconclusive = weak or mixed curves, or effect the other way; inactive = no such curve, though single readings can be large or run the other way.
quantityName: Potency

# compound, quantityName, result
rows = [
    ("ClC1=C(Cl)[C@]2(Cl)[C@H]3[C@H]([C@H]4C=C[C@H]3C4)[C@@]1(Cl)C2(Cl)Cl", "Potency", "inactive"),
    ("c1ccc2cc3c(cc2c1)-c1cccc2cccc-3c12", "Potency", "inactive"),
    ("CCC[CH2][Sn]([CH2]CCC)([CH2]CCC)[O]C(=O)c1ccccc1", "Potency", "0.864 µM (active)"),
    ("CC(C)(C)C(O)/C(=C\\c1ccc(Cl)cc1Cl)n1cncn1 (centres undefined)", "Potency", "65.9 µM (active)"),
    ("BrCBr", "Potency", "inactive"),
    ("CC(C)[C@H](C(=O)OC(C#N)c1cccc(Oc2ccccc2)c1)c1ccc(OC(F)F)cc1 (some centres undefined)", "Potency", "inactive"),
    ("CN(C)C(=S)[S-].CN(C)C(=S)[S-].[Cu+2]", "Potency", "3.33 µM (active)"),
    ("CC(=[OH+])/C=C(/C)[O-].CC(=[OH+])/C=C(\\C)[O-].CC(=[OH+])/C=C(\\C)[O-].[Al]", "Potency", "inactive"),
    ("CC(=O)[O-].[Tl+]", "Potency", "inactive"),
    ("CC1(C)CN=C(NN=C(/C=C/c2ccc(C(F)(F)F)cc2)/C=C/c2ccc(C(F)(F)F)cc2)NC1", "Potency", "17.2 µM (active)"),
]

Challenge: Requested read-out: Potency. Entry: CCOP(=S)(OCC)OC(Cl)C(Cl)(Cl)Cl (centres undefined)
Response given: inactive

Challenge: Requested read-out: Potency. Entry: CC1(C)C(/C=C(\Cl)C(F)(F)F)C1C(=O)OC(C#N)c1cccc(Oc2ccccc2)c1 (centres undefined)
Response given: inactive

Challenge: Requested read-out: Potency. Entry: COC12CC[C@@]3(C[C@@H]1C(C)(O)C(C)(C)C)[C@H]1Cc4ccc(O)c5c4[C@@]3(CCN1CC1CC1)[C@H]2O5 (some centres undefined)
Response given: 17.1 µM (active)

====

assay: qHTS assay for small molecule activators of the heat shock response signaling pathway (AID 743210); details: HeLa HSE-bla reporter, beta-lactamase ratio, 5 h; series mostly up to 62.6 µM;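 also: HeLa cells with beta-lactamase reporter driven by heat shock elements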
Inconclusive results are not listed. Activity calls are given as the source filed them. Calls come from the whole dose curve; as a rule, active = well fitted activation curve with a large enough effect in the signal ratio in the repeat runs, with a control signal flat (not every such curve was filed as active); inconclusive = weak or mixed curves; inactive = flat fitted curve, though single readings scatter; the % refers to the signal ratio.
Result category, one only: active, inactive

# molecule, cat
measured = [
    ("C[C@]12Cc3nonc3C[C@@H]1CC[C@@H]1[C@@H]2CC[C@@]2(C)[C@H]1CC[C@]2(C)O", "inactive"),
    ("C[C@]12CC[C@H]3[C@@H](CCC4=CC(=O)CC[C@@]43C)[C@@H]1CC[C@@H]2O", "inactive"),
    ("Oc1ccc(C(c2ccc(O)cc2)(C(F)(F)F)C(F)(F)F)cc1", "inactive"),
    ("COc1ccc(/C(=C/C(=O)N2CCOCC2)c2ccc(Cl)cc2)cc1OC", "inactive"),
    ("O=C(O)COc1nc(Cl)c(Cl)cc1Cl", "inactive"),
]

Challenge: Tell me the recorded outcome of this test for "ClCc1ccc(Cl)cc1Cl" .
Response given: inactive

Challenge: Tell me the recorded outcome of this test for "Cc1ccc(OP(=O)(Oc2ccccc2)Oc2ccccc2)cc1" .
Response given: inactive

Challenge: Tell me the recorded outcome of this test for "N#CNC#N" .
Response given: inactive

Challenge: Tell me the recorded outcome of this test for "O=[N+]([O-])c1ccc2ccc3cccc4ccc1c2c34" .
Response given: inactive

Challenge: Tell me the recorded outcome of this test for "Clc1ccc(C(Cl)(Cl)Cl)c(Cl)c1" .
Response given: inactive

meta.source: PubChem BioAssay (Tox21)
